# Lookup of reported EC50 keyed by entry
Molecular target: T1, mouse tissue factor pathway inhibitor (TFPI) (mouse, UniProt O54819 29-289, limits assumed)
T1 construct: Bought protein; also called mouse TFPI; mTFPI
T1 sequence (looked up): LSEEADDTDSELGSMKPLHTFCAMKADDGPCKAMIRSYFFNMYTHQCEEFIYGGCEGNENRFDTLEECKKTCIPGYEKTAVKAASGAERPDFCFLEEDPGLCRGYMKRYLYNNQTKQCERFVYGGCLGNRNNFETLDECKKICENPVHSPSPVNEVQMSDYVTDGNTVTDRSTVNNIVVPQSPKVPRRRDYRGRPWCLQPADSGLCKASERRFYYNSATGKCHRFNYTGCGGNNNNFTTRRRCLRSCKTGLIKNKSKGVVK
Assay: ELISA, Fab on coated TFPI
Field format: number, assumed µM, no unit text.

>  <binder>
TP-3G1 Fab (Fab, V domains shown, Human Fab from HuCal Gold, expressed in E. coli TG1) VH: QVQLQQSGPGLVKPSQTLSLTCAISGDSVSSNSGGWGWIRQSPGRGLEWLGLIYYRSKWYNAYAVSVKSRITINPDTSKNQFSLQLNSVTPEDTAVYYCARYLGSNFYVYSDVWGQGTLVTVSS VL: DIQMTQSPSSLSASVGDRVTITCRASQGISSYLHWYQQKPGKAPKLLIYGASTLQSGVPSRFSGSGSGTDFTLTISSLQPEDFATYYCQQQNGYPFTFGQGTKVEIKR

>  <quantity>
EC50

>  <numericResult>
0.00868

$$$$

Here is the next item to consider.
Q) Name the reported EC50 value associated with the binder TP-2B3 Fab (Fab, V domains shown, Human Fab from HuCal Gold, expressed in E. coli TG1) VH: QVQLQQSGPGLVKPSQTLSLTCAISGDSVSSNSAAWGWIRQSPGRGLEWLGMIYYRSKWYNSYAVSVKSRITINPDTSKNQFSLQLNSVTPEDTAVYYCARTMSKYGGPGMDVWGQGTLVTVSS VL: DIVLTQSPATLSLSPGERATLSCRASQNIGSNYLAWYQQKPGQAPRLLIYGASTRATGVPARFNGSGSGTDFTLTISSLEPEDFAVYYCQQLNSIPVTFGQGTKVEIKR
A) 0.0202
